- Assayed System: intestinal alkaline phosphatase Alpi (Mus musculus)
- Assay Name: inhibition of murine Alpi phosphatase – biochemical, luminescence, SAR follow-up (AID 493135)
- Reported Conditions: purified mouse IAP, luminescent substrate readout
The source made the active and inactive calls. The rule behind the calls is not given here.
Select the correct class. Options are 1 = active, 0 = inactive and nothing else.

COc1cc(NC(=S)NCCC(c2ccccc2)c2ccccc2)cc(OC)c1 | 0
COc1ccc(NC(=S)NCCC(c2ccccc2)c2ccccc2)cc1 | 0
COC(=O)c1cc(NC(=S)NCCC(c2ccccc2)c2ccccc2)cc(C(=O)OC)c1 | 0
COc1cccc(NC(=S)NCCC(c2ccccc2)c2ccccc2)c1 | 0
CN(C)S(=O)(=O)c1cccc(NC(=S)NCCC(c2ccccc2)c2ccccc2)c1 | 0

## Task What classification did `Cc1cccc(NC(=S)NCCC(c2ccccc2)c2ccccc2)c1C` end up with in this test?
## Result 0

## Task What classification did `CCn1nc(C)c(CN2CCC(C(=O)Nc3cccc(-c4cccc(F)c4)c3)CC2)c1C` end up with in this test?
## Result 0

## Task What classification did `C=CCn1cc(CN2CCC(C(=O)Nc3cccc(-c4cccc(F)c4)c3)CC2)c(C)n1` end up with in this test?
## Result 0

## Task What classification did `Cc1cc(NC(=O)CCNS(=O)(=O)c2ccc3[nH]c(=O)oc3c2)ccc1Br` end up with in this test?
## Result 1

---

- Assayed System: intestinal alkaline phosphatase Alpi (Mus musculus)
- Assay Name: inhibition of murine Alpi phosphatase – biochemical, luminescence, SAR follow-up (AID 493135)
- Reported Conditions: purified mouse IAP, luminescent substrate readout
The source made the active and inactive calls. The rule behind the calls is not given here.
Select the correct class. Options are label 1 for active, label 0 for inactive and nothing else.

## Task What classification did `Cc1ccc(NC(=S)NCCC(c2ccccc2)c2ccccc2)cc1` end up with in this test?
## Result label 0

## Task What classification did `FC(F)(F)c1cccc(NC(=S)NCCC(c2ccccc2)c2ccccc2)c1` end up with in this test?
## Result label 0

## Task What classification did `CCCn1ncc(CN2CCC(C(=O)Nc3cccc(-c4cccc(F)c4)c3)CC2)c1C` end up with in this test?
## Result label 0

## Task What classification did `CN1CCC(=NNC(=O)c2cc(O)c(O)c(O)c2)CC1` end up with in this test?
## Result label 1

## Task What classification did `S=C(NCCC(c1ccccc1)c1ccccc1)Nc1ccc(Cl)cc1` end up with in this test?
## Result label 0

## Task What classification did `CCn1cc(CN2CCC(C(=O)Nc3cccc(-c4cccc(OC)c4)c3)CC2)cn1` end up with in this test?
## Result label 0

## Task What classification did `S=C(NCCC(c1ccccc1)c1ccccc1)Nc1ccc(Cl)cc1Cl` end up with in this test?
## Result label 0

## Task What classification did `O=C(CN1C(=O)/C(=C/c2ccco2)SC1=S)Nc1ccc(C(=O)O)cc1` end up with in this test?
## Result label 1

## Task What classification did `Cc1cc(Cl)ccc1NC(=S)NCCC(c1ccccc1)c1ccccc1` end up with in this test?
## Result label 0

## Task What classification did `CCn1ncc(CN2CCC(C(=O)Nc3cccc(-c4cccc(F)c4)c3)CC2)c1C` end up with in this test?
## Result label 0

---

- Assayed System: intestinal alkaline phosphatase Alpi (Mus musculus)
- Assay Name: inhibition of murine Alpi phosphatase – biochemical, luminescence, SAR follow-up (AID 493135)
- Reported Conditions: purified mouse IAP, luminescent substrate readout
Active and inactive are the calls of the source. How the calls were made is not given here.
Select the correct class. Options are class 1 = active, class 0 = inactive and nothing else.

Field: example entries. Status: answers known.
Cc1cc(C)cc(NC(=S)NCCC(c2ccccc2)c2ccccc2)c1 | class 0
CCOC(=O)c1ccc(NC(=S)NCCC(c2ccccc2)c2ccccc2)cc1 | class 0

## Task What classification did `Cn1cc(CN2CCC(C(=O)Nc3cccc(-c4cccc(F)c4)c3)CC2)cn1` end up with in this test?
## Result class 0

## Task What classification did `NS(=O)(=O)c1ccc(NC(=S)NCCC(c2ccccc2)c2ccccc2)cc1` end up with in this test?
## Result class 0

## Task What classification did `Cc1ccc(CN2CCC(C(=O)Nc3cccc(-c4cccc(F)c4)c3)CC2)o1` end up with in this test?
## Result class 0

---

- Assayed System: intestinal alkaline phosphatase Alpi (Mus musculus)
- Assay Name: inhibition of murine Alpi phosphatase – biochemical, luminescence, SAR follow-up (AID 493135)
- Reported Conditions: purified mouse IAP, luminescent substrate readout
Calls of active or inactive are those of the source. The rule behind the calls is not given here.
Select the correct class. Options are Yes for active, No for inactive and nothing else.

Field: example entries. Status: answers known.
COc1cc([N+](=O)[O-])ccc1NC(=S)NCCC(c1ccccc1)c1ccccc1 | No
Cc1ccc(C)c(NC(=S)NCCC(c2ccccc2)c2ccccc2)c1 | No
Cc1cc(=O)oc2cc(NC(=S)NCCC(c3ccccc3)c3ccccc3)ccc12 | No
S=C(NCCC(c1ccccc1)c1ccccc1)Nc1ccc(Nc2ccccc2)cc1 | No
CCn1nc(C)c(CN2CCC(C(=O)Nc3cccc(-c4cccc(Cl)c4)c3)CC2)c1C | No

## Task What classification did `COc1cccc(-c2cccc(NC(=O)C3CCN(Cc4ccc(CO)o4)CC3)c2)c1` end up with in this test?
## Result No

## Task What classification did `O=C(CN1C(=O)/C(=C/c2ccco2)SC1=S)Nc1cccc(C(=O)O)c1` end up with in this test?
## Result Yes

## Task What classification did `O=S(=O)(Nc1ncccn1)c1ccc(NC(=S)NCCC(c2ccccc2)c2ccccc2)cc1` end up with in this test?
## Result No

## Task What classification did `O=C(Nc1cccc(-c2cccc(Cl)c2)c1)C1CCN(Cc2ccc(CO)o2)CC1` end up with in this test?
## Result No

## Task What classification did `COc1cccc(-c2cccc(NC(=O)C3CCN(Cc4ccc(C)o4)CC3)c2)c1` end up with in this test?
## Result No

## Task What classification did `Cc1nn(C)c(Cl)c1CN1CCC(C(=O)Nc2cccc(-c3cccc(F)c3)c2)CC1` end up with in this test?
## Result No

## Task What classification did `Cc1ccc(NC(=O)CCNS(=O)(=O)c2ccc3[nH]c(=O)oc3c2)cc1C` end up with in this test?
## Result Yes

---

- Assayed System: intestinal alkaline phosphatase Alpi (Mus musculus)
- Assay Name: inhibition of murine Alpi phosphatase – biochemical, luminescence, SAR follow-up (AID 493135)
- Reported Conditions: purified mouse IAP, luminescent substrate readout
The source made the active and inactive calls. The rule behind the calls is not given here.
Select the correct class. Options are 1 = active, -1 = inactive and nothing else.

Field: example entries. Status: answers known.
C=CCn1cc(CN2CCC(C(=O)Nc3cccc(-c4cccc(Cl)c4)c3)CC2)c(C)n1 | -1
CC(C)N1CCC(=NNC(=O)c2cc(O)c(O)c(O)c2)CC1 | 1
Cc1ccc(NC(=S)NCCC(c2ccccc2)c2ccccc2)cc1C | -1
CCN1CCN(S(=O)(=O)c2ccc3[nH]c(=O)oc3c2)CC1 | -1
CCn1cc(CN2CCC(C(=O)Nc3cccc(-c4cccc(OC)c4)c3)CC2)c(C)n1 | -1
COc1ccc(C(=O)CSc2n[nH]c(-c3ccccc3)n2)cc1OC | -1

For the next question, use this compound.
## Task What classification did `Cc1nn(C(C)C)c(C)c1CN1CCC(C(=O)Nc2cccc(-c3cccc(F)c3)c2)CC1` end up with in this test?
## Result -1

---

- Assayed System: intestinal alkaline phosphatase Alpi (Mus musculus)
- Assay Name: inhibition of murine Alpi phosphatase – biochemical, luminescence, SAR follow-up (AID 493135)
- Reported Conditions: purified mouse IAP, luminescent substrate readout
Calls of active or inactive are those of the source. How the calls were made is not given here.
Select the correct class. Options are t for active, f for inactive and nothing else.

S=C(NCCC(c1ccccc1)c1ccccc1)Nc1ccc(Cl)c(Cl)c1 | f

## Task What classification did `O=C(Nc1cccc(-c2cccc(Cl)c2)c1)C1CCN(C2CCC2)CC1` end up with in this test?
## Result f

## Task What classification did CC1(c2ccccc2)CC(C)(C)N(C(=S)Nc2ccccc2)c2ccccc21 (stereo unspecified) end up with in this test?
## Result f

## Task What classification did `Cc1c(Cl)cccc1Nc1nc(-c2ccc(O)c(O)c2)cs1` end up with in this test?
## Result t

## Task What classification did `CCn1c(SCC(=O)c2ccc(O)c(O)c2)nnc1-c1ccccc1OC` end up with in this test?
## Result t

## Task What classification did `S=C(NCCC(c1ccccc1)c1ccccc1)Nc1ccccc1` end up with in this test?
## Result f

---

- Assayed System: intestinal alkaline phosphatase Alpi (Mus musculus)
- Assay Name: inhibition of murine Alpi phosphatase – biochemical, luminescence, SAR follow-up (AID 493135); call rule not given here
- Reported Conditions: purified mouse IAP, luminescent substrate readout
Select the correct class. Options are yes (1) (active), no (0) (inactive) and nothing else.

CCc1ccccc1Nc1nc(-c2ccc(O)c(O)c2)cs1 | yes (1)

For the next question, use this molecule.
## Task What classification did `Oc1ccc(-c2csc(Nc3cccc4ccccc34)n2)cc1O` end up with in this test?
## Result yes (1)
